Reference source: patent US5519155A

Recorded pIC50 by entry
- Tested on: CH^R
- protocol_summary: In vitro cytotoxicity (SRB assay), human ovarian carcinoma line CH^R
- Assay type: cell-based
- condition_parameters: CH^R cells, exposure 48 to 96 hours
Keep it numeric: pIC50 is minus log10 of the concentration in mol/L.

- compound: "CC(=O)[O][Pt]([OH])([Cl])[O]C(C)=O.N.NC1CCCCC1"
  pIC50: 7.09

Exercise: Respond only with pIC50 recorded for CC(=O)[O][Pt]([OH])([OH])[O]C(C)=O.N.NC1CCCCC1
Solution: 5.87

Exercise: Respond only with pIC50 recorded for CC(=O)[O][Pt]([OH])([Cl])[O]C(C)=O.CC(C)N.CC(C)N [Example 4, c,t,c-[PtCl(OH)(OAc)2 (i-C3 H7 NH2)2]]
Solution: 6.68
